Source: ChEMBL document CHEMBL1142867

PROCEDURE_DETAILS: Cytotoxicity against C3H cells assessed as alteration in cell morphology
Format: cell-based
SETTINGS: mouse
ASSAY_READOUT: MCC (µg/mL)
API: value field is a number in µg/mL; no unit string.

Record excerpt, results attached:
Prompt line: Query: MCC; subject: `Nc1cnn(C[C@@H](CO)OCP(=O)(O)O)c(=O)n1`
Response line: 100

Prompt line: Next record, please: `Nc1ncn(CCOCP(=O)(O)O)c(=O)n1`
Response line: 200

# next molecule below
Prompt line: Query: MCC; subject: `Nc1ncn(C[C@@H](CO)OCP(=O)(O)O)c(=O)n1`
Response line: 20

---

Measured CC50 values are reported for all entries that follow.
PROCEDURE_DETAILS: Cytotoxicity against Huh5-2 cells assessed as reduction of cell growth
Format: cell-based, Huh-5-2
SETTINGS: human

Record excerpt, results attached:
Prompt line: Query: CC50; subject: `Nc1cnn(C[C@@H](CO)OCP(=O)(O)O)c(=O)n1`
Response line: 111 µg/mL

Prompt line: Next record, please: `NC(N)=NC(=O)NC[C@@H](CO)OCP(=O)(O)O`
Response line: > 50 µg/mL

Prompt line: Next record, please: `Nc1ncn(C[C@@H](CO)OCP(=O)(O)O)c(=O)n1`
Response line: > 50 µg/mL

Prompt line: Next record, please: `Nc1ncn(CCOCP(=O)(O)O)c(=O)n1`
Response line: > 50 µg/mL

# next compound below
Prompt line: Query: CC50; subject: `Nc1ncn(C[C@H](CO)OCP(=O)(O)O)c(=O)n1`
Response line: > 50 µg/mL

---

Measured Activity values are reported for all entries that follow.
Tested on: HEL
PROCEDURE_DETAILS: Cytotoxicity against HEL cells assessed as inhibition of cell growth after 3 days
Format: cell-based
SETTINGS: human, 72 h

Prompt line: Query: Activity; subject: `NC(=NC(=O)NC[C@@H](CO)OCP(=O)(O)O)NC=O`
Response line: > 50 µg/mL

Prompt line: Next record, please: `Nc1nc2c(ncn2COCCO)c(=O)[nH]1`
Response line: 173.5 µg/mL

Prompt line: Next record, please: `C[C@H](Cn1cnc(N)nc1=O)OCP(=O)(O)O`
Response line: > 50 µg/mL

Prompt line: Next record, please: `Nc1ncn(CCOCP(=O)(O)O)c(=O)n1`
Response line: > 50 µg/mL

Prompt line: Next record, please: `Nc1nc(O)c2ncn(COC(CO)CO)c2n1`
Response line: 83.6 µg/mL

New cases:
Prompt line: Query: Activity; subject: `NC(N)=NC(=O)NC[C@@H](CO)OCP(=O)(O)O`
Response line: > 50 µg/mL

Prompt line: Next record, please: `Nc1ccn(C[C@@H](CO)OCP(=O)(O)O)c(=O)n1.O.O`
Response line: 60.9 µg/mL

Prompt line: Next record, please: `Nc1ncn(C[C@H](O)CO)c(=O)n1`
Response line: > 100 µg/mL

Prompt line: Next record, please: `Nc1cnn(C[C@@H](CO)OCP(=O)(O)O)c(=O)n1`
Response line: > 50 µg/mL

Prompt line: Next record, please: `Nc1ncn(C[C@H](CO)OCP(=O)(O)O)c(=O)n1`
Response line: > 100 µg/mL

---

Measured EC50 values are reported for all entries that follow.
Tested on: Vesicular stomatitis virus
PROCEDURE_DETAILS: microbe, parasite or virus in culture
SETTINGS: HeLa

Prompt line: Query: EC50; subject: `Nc1ncn(CCOCP(=O)(O)O)c(=O)n1`
Response line: > 80 µg/mL

Prompt line: Next record, please: Nc1ncnc2c1ncn2C[C@H](O)CO [(S)-DHPA]
Response line: 400 µg/mL

Prompt line: Next record, please: `C[C@H](Cn1cnc(N)nc1=O)OCP(=O)(O)O`
Response line: > 100 µg/mL

Prompt line: Next record, please: `Nc1ncn(C[C@H](O)CO)c(=O)n1`
Response line: > 100 µg/mL

Prompt line: Next record, please: `Nc1ncn(C[C@@H](CO)OCP(=O)(O)O)c(=O)n1`
Response line: > 400 µg/mL

# next molecule below
Prompt line: Query: EC50; subject: NC(=O)c1ncn([C@@H]2O[C@H](CO)[C@@H](O)[C@H]2O)n1 [RIBAVIRIN]
Response line: 80 µg/mL
